# normalized growth per entry
- MEASUREMENT DESCRIPTION: chemical genetic growth profiling, strain panel (AID 1159580);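 note: tested at 20 µM; growth read once vehicle control cultures reached saturation at 30 °C; 1 = growth at the plate median or of vehicle wells; lower values mean less growth of the strain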
- MEASUREMENT CONDITIONS: S. cerevisiae deletion strains, growth OD, locus YBR171W, strain sec66, hits give low values
In all, about 5,500 compounds went through this assay and about 2,000 (36%) were called active. Inconclusive results (about 18%) are left out. This is one part of the list.
Output: the number by itself.

# annotated cases, reported normalized growth shown
[
  {
    "COMPOUND": "Clc1ccc(C(OCCN2CCCCC2)c2ccccc2)cc1 (stereo unspecified)",
    "MEASURED ENDPOINT": "normalized growth",
    "RECORDED MEASUREMENT": 1.02
  },
  {
    "COMPOUND": "C=C1CCC2[C@](C)(CO)[C@H](O)CC[C@@]2(C)[C@@H]1C/C=C1/C(=O)OC[C@H]1O (stereo partly specified)",
    "MEASURED ENDPOINT": "normalized growth",
    "RECORDED MEASUREMENT": 0.978
  },
  {
    "COMPOUND": "C=C[C@@](C)(O)CCC1C(=C)C[C@H](OC(C)=O)C2C(C)(C)CCCC12C (stereo partly specified)",
    "MEASURED ENDPOINT": "normalized growth",
    "RECORDED MEASUREMENT": 1.01
  },
  {
    "COMPOUND": "CCCCCCCCC(=O)NCc1ccc(O)c(OC)c1",
    "MEASURED ENDPOINT": "normalized growth",
    "RECORDED MEASUREMENT": 0.983
  },
  {
    "COMPOUND": "COc1cc(CNC(=O)CCCC/C=C/C(C)C)ccc1O",
    "MEASURED ENDPOINT": "normalized growth",
    "RECORDED MEASUREMENT": 0.979
  }
]

Ask: Any idea what normalized growth was measured for CN(C)CCOC(c1ccc(Cl)cc1)c1ccccn1 (stereo unspecified) ?
Result: 1.02

Ask: Let us now turn to C=CC[C@]1(O)CCC2C3CCC4=CC(=O)CCC4=C3C=C[C@@]21C (stereo partly specified)
Result: 0.975

Ask: Let us now turn to CCC(C)C(=O)O[C@@H]1C[C@@]2(C)[C@H](c3ccoc3)OC(=O)CC23OC2(C)OC34[C@H](OC(=O)C(C)C)[C@@]3(O)[C@@H](OC(=O)C5(C)OC5C)[C@@]5(C)C[C@]3(O)[C@@](C)([C@H]5CC(=O)OC)C14O2 (stereo partly specified)
Result: 0.988

Ask: Let us now turn to C=C[C@@](C)(O)CCC1C(=C)CCC2[C@@](C)(CO)CCC[C@]12C (stereo partly specified)
Result: 1.08

Ask: Let us now turn to C=C[C@@](C)(O)CCC1C(=C)C[C@H](O)C2C(C)(C)CCCC12C (stereo partly specified)
Result: 0.976

Ask: Let us now turn to CN1CCC(OC(c2ccccc2)c2ccccc2)CC1
Result: 0.99
